Test system: Rattus norvegicus
Experiment: Effective dose required for half maximal decrease of DOPA accumulation after subcutaneous administration in limbic tissue of rat brain
Assay type: functional
Settings: sc
Answer each item with its documented ED50.

Below, each entry is followed by its recorded ED50 result.
>  <SMILES_RECORD>
CCCN(CCC)[C@@H]1CCc2cccc(O)c2[C@@H]1C.Cl

>  <REPORTED_MEASUREMENT>
> 50 µmol/kg

$$$$
>  <SMILES_RECORD>
CCCN(CCC)[C@@H]1CCc2cccc(OC)c2[C@@H]1C

>  <REPORTED_MEASUREMENT>
1.71 µmol/kg

$$$$
>  <SMILES_RECORD>
CCCN(CCC)[C@@H]1CCc2cccc(O)c2[C@H]1C

>  <REPORTED_MEASUREMENT>
> 50 µmol/kg

$$$$
>  <SMILES_RECORD>
CCCN(CCC)[C@@H]1CCc2cccc(OC)c2[C@H]1C

>  <REPORTED_MEASUREMENT>
> 50 µmol/kg

$$$$

Shifting focus to the compound that follows.
In plain terms, CCCN(CCC)[C@@H]1CCc2cccc(O)c2C1 has a documented ED50 of > 45 µmol/kg

* * *

Answer each item with its documented ED50.
Tested on: Rattus norvegicus
Assay: Effective dose required for half maximal decrease of 5-HTP formation after subcutaneous administration of compound in limbic tissue of rat brain
Assay type: functional
Conditions: sc
One number for each entry, in µmol/kg.

>  <SMILES_RECORD>
CCCN(CCC)[C@@H]1CCc2cccc(O)c2C1

>  <UNIT_TEXT>
µmol/kg

>  <REPORTED_MEASUREMENT>
0.061

$$$$

Shifting focus to the molecule that follows.
In plain terms, CCCN(CCC)[C@@H]1CCc2cccc(OC)c2[C@@H]1C has a documented ED50 of 0.53
